Sourced from PubChem BioAssay AID2158

# targetEntity: Cruzipain (Trypanosoma cruzi) (UniProt P25779)
# Sequence (P25779 123-467 limits assumed): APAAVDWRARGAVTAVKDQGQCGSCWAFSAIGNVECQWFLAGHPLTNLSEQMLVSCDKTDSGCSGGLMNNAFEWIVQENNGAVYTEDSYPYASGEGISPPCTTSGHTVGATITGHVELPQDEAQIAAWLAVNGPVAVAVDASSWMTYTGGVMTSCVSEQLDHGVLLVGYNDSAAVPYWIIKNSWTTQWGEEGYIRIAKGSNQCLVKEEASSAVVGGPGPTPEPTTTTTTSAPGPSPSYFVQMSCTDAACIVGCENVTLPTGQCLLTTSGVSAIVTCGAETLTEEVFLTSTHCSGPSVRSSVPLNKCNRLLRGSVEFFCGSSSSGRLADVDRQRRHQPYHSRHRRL
# method: Confirmation qHTS Assay for Inhibitors of Cruzain; also: nearly all actives have a fitted effect of over 40% in size;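 as to activity change, negative = inhibition: plate controls were uninhibited enzyme control for no effect and buffer wells lacking enzyme for full effect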
# conditions: purified cruzain, Z-FR-AMC fluorescence, 0.01% Triton
# Experimental: Cruzain is a cysteine protease from the tropical parasite Trypanosoma cruzi. This assay protocol is a follow-up and confirmation of related AID 1478 (qHTS Assay for Promiscuous and Specific Inhibitors of Cruzain -- with detergent). Cruzain was assayed by the use of fluorogenic coumarin-based substrate Z-FR-AMC: proteolytic cleavage releases AMC, whose fluorescence is measured at 360 nm excitation and 450 nm emission. Purified cruzain was supplied by the labs of Prof. […]
Results filed as inconclusive are left out.
# key: entry, value: activity change, negative = inhibition
observable: activity change, negative = inhibition (%)

- O=C(Cn1c2ccccc2c(=O)c2ccccc21)Nc1cccc(F)c1: -8.37
- CC(C)(C)OC(=O)NCC(=O)NNC(=O)c1cc2ccccc2[nH]1: -2.11
- COc1cccc(-c2nn3c(-c4cc(C)[nH]n4)nnc3s2)c1: -5.64
- CCCCNC(=O)Cn1c(SCc2ccccc2C)nc2ccncc21: -24.9
- CNC(=O)c1ccc2nc(-c3ccccc3)c(-c3ccccc3)nc2c1: -11.4
- CCn1cnc2c(NCc3cccnc3)nc(C#N)nc21: -4.84
- O=C(NCc1ccc2c(c1)OCO2)c1ccc2c(c1)N(Cc1c(F)cccc1Cl)C(=O)c1ccccc1S2: 3.42
- CCn1cnc2c(Nc3cc(F)cc(F)c3)nc(C(=O)COc3c(F)c(F)cc(F)c3F)nc21: -8.99
- O=C(NCC1CC1)c1ccc2nc(-c3ccoc3)c(-c3ccoc3)nc2c1: -15.5
- Cc1oc(=O)c(NC(=O)c2ccccc2)cc1C(=O)c1ccccc1: -5.13
- O=C(NCc1nnc(-c2cc3ccccc3[nH]2)o1)c1ccccc1: -2.11
- CCOc1ccc(-c2csc(NC(=O)c3ccc(S(=O)(=O)N4CCc5ccccc5C4)cc3)n2)cc1: -11
- Cc1ccc(C(=O)NCCn2c(N)c(C#N)c3nc4ccccc4nc32)cc1: -28.5
- O=C(CNC(=O)c1ccc(-c2ccccc2)cc1)OC(C(=O)Nc1cc(C(F)(F)F)ccc1Cl)c1ccccc1 (stereo unspecified): -19.3
- CCOC(=O)N1CCC(=C2c3ccc(Cl)cc3CCc3cccnc32)CC1: -13.4
- O=C(Nc1ccc(O)c(-c2nc3ccccc3o2)c1)C1(c2ccc([N+](=O)[O-])cc2)CCCC1: -1.92
- CCOC(=O)[C@H](CCc1ccccc1)N[C@@H](C)C(=O)N1[C@H](C(=O)O)C[C@H]2CCCC[C@@H]21: 0.349
- CCCCNC(=O)Cn1c(SCc2cccc(F)c2)nc2ccncc21: -27.5
- O=C(c1ccco1)N1CCN(c2ncnc3c2[nH]c2ccc(Cl)cc23)CC1: -37.6
- O=C(Cn1cc(CNC(=O)c2ccccc2)nn1)Nc1cc(C(F)(F)F)ccc1Cl: 2.48
- CCCCNC(=O)c1ccc2nc(-c3cccs3)c(-c3cccs3)nc2c1: -3.05

====

# targetEntity: Cruzipain (Trypanosoma cruzi) (UniProt P25779)
# method: Confirmation qHTS Assay for Inhibitors of Cruzain; also: nearly all actives have a fitted effect of over 40% in size; also: potency is read from the fitted curve at half-maximal effect
# conditions: purified cruzain, Z-FR-AMC fluorescence, 0.01% Triton
Results filed as inconclusive are left out. Activity calls are given as the source filed them. Calls follow the shape of the dose curve; as a rule, active = well fitted inhibition curve with a large enough effect; inconclusive = small, poorly fitted or top-dose-only effect; inactive = no such curve, though single readings can be large or run the other way.
observable: Potency

* O=C(COC(=O)CNC(=O)c1ccccc1Cl)Nc1cc(C(F)(F)F)ccc1Cl | 3.55 µM (active)
* N#Cc1nc(Nc2ccc(Br)cc2)nc(NC2CCCC2)n1 | 0.501 µM (active)
* N#Cc1ccc(C(=O)NCC(=O)OC(C(=O)Nc2cc(C(F)(F)F)ccc2Cl)c2ccccc2)cc1 (stereo not given) | 12.6 µM (active)
* O=C1NN(c2ccc(Cl)c(Cl)c2)C(=O)/C1=C/c1cccc(OC(=O)c2cccs2)c1 | 35.5 µM (active)
* CCOc1nc(C#N)nc(N2CCOCC2)n1 | 5.01 µM (active)
* Cc1ccccc1C(=O)NCC(=O)OC(C(=O)Nc1cc(C(F)(F)F)ccc1Cl)c1ccccc1 (stereo not given) | 12.6 µM (active)
* CCn1cnc2c(Nc3ccc(CCC(=O)N=C(N)N)cc3)nc(C#N)nc21 | 35.5 µM (active)
* Cn1nc(-c2ccncc2)nc2c(=O)n(C)c(=O)nc1-2 | 0.891 µM (active)
* N#Cc1nc(N2CCCCC2)nc(N2CCOCC2)n1 | 2.82 µM (active)
* COc1ccc(C(F)(F)F)cc1NC(=O)C(OC(=O)CNC(=O)c1ccccc1)c1ccccc1 (stereo not given) | 14.1 µM (active)

====

# Potency per entry
# targetEntity: Cruzipain (Trypanosoma cruzi) (UniProt P25779)
# method: Confirmation qHTS Assay for Inhibitors of Cruzain; also: nearly all actives have a fitted effect of over 40% in size; also: potency is read from the fitted curve at half-maximal effect
# conditions: purified cruzain, Z-FR-AMC fluorescence, 0.01% Triton
# Protocol: Cruzain is a cysteine protease from the tropical parasite Trypanosoma cruzi. This assay protocol is a follow-up and confirmation of related AID 1478 (qHTS Assay for Promiscuous and Specific Inhibitors of Cruzain -- with detergent). Cruzain was assayed by the use of fluorogenic coumarin-based substrate Z-FR-AMC: proteolytic cleavage releases AMC, whose fluorescence is measured at 360 nm excitation and 450 nm emission. Purified cruzain was supplied by the labs of Prof. […]
Results filed as inconclusive are left out. Calls of active or inactive are those of the source. Calls come from the whole dose curve; as a rule, active = well fitted inhibition curve with a large enough effect; inconclusive = small, poorly fitted or top-dose-only effect; inactive = no such curve, though single readings can be large or run the other way.
observable: Potency

- NC(=S)N/N=C/c1ccc(-c2ccc(Cl)c(Cl)c2)o1: 2 µM (active)
- Cc1ccc(Nc2nc(C#N)nc(NC3CCCC3)n2)cc1: 0.447 µM (active)
- Cc1ccc(-c2c3c(=O)n(C)c(=O)n(C)c3cn2-n2cnnc2)cc1: 25.1 µM (active)
- N#Cc1nc(NCCO)nc(Nc2ccccc2)n1: 1.58 µM (active)
- O=C(NCCCO)c1ccc2nc(-c3ccco3)c(-c3ccco3)nc2c1: 12.6 µM (active)
- NC(=S)N/N=C\c1ccc(-c2cccc(Cl)c2Cl)o1: 1 µM (active)
- O=C(O)c1c(Sc2ccccc2)c2cc(Cl)ccc2n1Cc1ccc(Cl)cc1: 8.91 µM (active)
- N#Cc1nc(N2CCCC2)nc(N(c2ccccc2)c2ccccc2)n1: 1 µM (active)
- O=C(CNC(=O)C1CCCCC1)OCC(=O)c1ccc(-c2ccccc2)cc1: 1.58 µM (active)
- CCC(C)c1ccccc1OCCn1c(CCNC(=O)C2CCCCC2)nc2ccccc21 (centres undefined): 10 µM (active)
- CCC(C)NC(=O)c1ccc2nc(-c3ccco3)c(-c3ccco3)nc2c1 (centres undefined): 7.08 µM (active)
- CCCCNC(=O)c1ccc2nc(-c3ccco3)c(-c3ccco3)nc2c1: 7.94 µM (active)
- CCCn1c(SCC(=O)N2CC(=O)Nc3ccccc32)nc2ccccc21: 28.2 µM (active)
- Clc1ccc2[nH]c3c(NCCCN4CCOCC4)ncnc3c2c1: 12.6 µM (active)
- N#Cc1nc(NCC(F)F)c2ncn(-c3cc(F)cc(F)c3)c2n1: 0.0562 µM (active)
- CC(C)(C)c1ccc(OCCn2c(CCNC(=O)C3CCCCC3)nc3ccccc32)cc1: 6.31 µM (active)
- CCN(CC)c1nc(C#N)nc(N2CCOCC2)n1: 8.91 µM (active)
- Cc1cccc(Nc2nc(C#N)nc(NC3CCCC3)n2)c1: 0.126 µM (active)
- O=C(NCCc1nc2ccccc2n1CCCOc1ccc(Cl)cc1)C1CCCCC1: 0.891 µM (active)
- CNC(=O)c1ccc2nc(-c3ccco3)c(-c3ccco3)nc2c1: 7.08 µM (active)
- CCCN(CCC)c1nc(C#N)nc(N(CCC)CCC)n1: 3.55 µM (active)
- CCc1ccc(C(=O)COC(=O)CNC(=O)C2CCCCC2)cc1: 7.08 µM (active)
- CSCC[C@H](NC(=O)COc1ccc(Cl)cc1Cl)c1nc2ccccc2[nH]1: 2.82 µM (active)
- N#Cc1nc(N(c2ccccc2)c2ccccc2)nc(-n2cccc2)n1: 2.51 µM (active)
- Cc1ccc(OCCCn2c(CCNC(=O)C3CCCCC3)nc3ccccc32)cc1: 0.794 µM (active)
- O=C(N[C@@H](Cc1ccccc1)C(=O)CCl)OCc1ccccc1: 0.447 µM (active)
- CC(C)(C)c1ccc(Nc2nc(C#N)nc(NC3CCCC3)n2)cc1: 3.55 µM (active)
- COc1cc(NC(=O)C(OC(=O)CNC(=O)c2ccccc2)c2ccccc2)cc(C(F)(F)F)c1 (centres undefined): 31.6 µM (active)
- COc1ccccc1NC(=O)C(OC(=O)CNC(=O)c1ccccc1)c1ccccc1 (centres undefined): 10 µM (active)

====

# targetEntity: Cruzipain (Trypanosoma cruzi) (UniProt P25779)
# method: Confirmation qHTS Assay for Inhibitors of Cruzain; also: nearly all actives have a fitted effect of over 40% in size; also: potency is read from the fitted curve at half-maximal effect
# conditions: purified cruzain, Z-FR-AMC fluorescence, 0.01% Triton
# Protocol: Cruzain is a cysteine protease from the tropical parasite Trypanosoma cruzi. This assay protocol is a follow-up and confirmation of related AID 1478 (qHTS Assay for Promiscuous and Specific Inhibitors of Cruzain -- with detergent). Cruzain was assayed by the use of fluorogenic coumarin-based substrate Z-FR-AMC: proteolytic cleavage releases AMC, whose fluorescence is measured at 360 nm excitation and 450 nm emission. Purified cruzain was supplied by the labs of Prof. […]
Records with an inconclusive call do not appear. Calls of active or inactive are those of the source. Calls follow the shape of the dose curve; as a rule, active = well fitted inhibition curve with a large enough effect; inconclusive = small, poorly fitted or top-dose-only effect; inactive = no such curve, though single readings can be large or run the other way.
observable: Potency

- O=C(NC1CC1)c1ccc2nc(-c3ccco3)c(-c3ccco3)nc2c1: 14.1 µM (active)
- O=C(CNC(=O)C1CCCCC1)OCC(=O)c1ccc([N+](=O)[O-])cc1: 2.82 µM (active)
- CC(C)Nc1nc(C#N)nc(NC(C)C)n1: 28.2 µM (active)
- CCOC(=O)C(C(=O)OCC)N(C#N)c1nc(OC)nc(N(C)C)n1: 15.8 µM (active)
- N#Cc1nc(Nc2cc(F)cc(F)c2)nc(NC2CCCC2)n1: 0.0631 µM (active)
- O=C(NCCc1nc2ccccc2n1CCOc1ccccc1)C1CCCCC1: 0.794 µM (active)
